- assay_system: Toll-like receptor 9 (Homo sapiens)
- Sequence (Q9NR96 whole entry): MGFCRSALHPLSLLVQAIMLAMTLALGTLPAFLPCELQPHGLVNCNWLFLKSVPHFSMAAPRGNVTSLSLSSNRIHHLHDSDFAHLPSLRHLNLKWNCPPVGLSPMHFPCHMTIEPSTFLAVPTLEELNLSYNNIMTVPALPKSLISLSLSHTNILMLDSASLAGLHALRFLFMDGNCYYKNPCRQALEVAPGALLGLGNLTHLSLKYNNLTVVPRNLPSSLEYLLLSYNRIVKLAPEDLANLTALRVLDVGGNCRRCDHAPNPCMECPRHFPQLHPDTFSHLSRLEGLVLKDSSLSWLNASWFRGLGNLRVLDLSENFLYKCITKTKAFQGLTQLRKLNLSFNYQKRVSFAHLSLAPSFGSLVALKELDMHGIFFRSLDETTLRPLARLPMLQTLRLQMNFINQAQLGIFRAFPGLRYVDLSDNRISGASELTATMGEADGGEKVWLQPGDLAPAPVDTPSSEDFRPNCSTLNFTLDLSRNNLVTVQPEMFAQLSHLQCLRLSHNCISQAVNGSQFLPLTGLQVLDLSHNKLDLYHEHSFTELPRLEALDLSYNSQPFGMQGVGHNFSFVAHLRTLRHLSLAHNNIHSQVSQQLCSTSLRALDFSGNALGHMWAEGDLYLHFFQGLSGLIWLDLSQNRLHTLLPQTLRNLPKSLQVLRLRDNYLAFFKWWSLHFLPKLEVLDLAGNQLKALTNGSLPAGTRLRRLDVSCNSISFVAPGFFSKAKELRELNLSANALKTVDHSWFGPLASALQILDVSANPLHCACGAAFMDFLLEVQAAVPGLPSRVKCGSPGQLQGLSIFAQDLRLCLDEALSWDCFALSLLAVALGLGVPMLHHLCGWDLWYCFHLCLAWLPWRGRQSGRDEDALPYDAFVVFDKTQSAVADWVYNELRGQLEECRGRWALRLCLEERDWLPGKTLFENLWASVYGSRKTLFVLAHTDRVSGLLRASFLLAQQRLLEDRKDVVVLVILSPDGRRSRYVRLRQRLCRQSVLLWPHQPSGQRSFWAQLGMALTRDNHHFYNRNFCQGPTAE
- protocol_details: Antagonist activity at TLR9 in human PBMC cells assessed as reduction in IFN alpha measured after 20 hrs by AlphaLISA assay
- Type: cell-based
Checkbox rule: IC50 lower than 0.7 µM = Condition met; IC50 not lower than 0.7 µM = Condition not met.

Given the entry Cc1cc(N2CCc3c(c(C)nn3CC34CCC(NC(=O)CN5CCCC5)(CC3)CC4)C2)c2cnn(C)c2n1 , would its reported IC50 be below 0.7 µM?
Condition not met

Given the entry CC(=O)NC12CCC(Cn3nc(C)c4c3CCN(c3cc(C)nc5c3cnn5C)C4)(CC1)CC2 , would its reported IC50 be below 0.7 µM?
Condition not met

Given the entry Cc1cc(N2CCc3c(c(C)nn3CC34CCC(NC(=O)CN(C)C)(CC3)CC4)C2)c2cnn(C)c2n1 , would its reported IC50 be below 0.7 µM?
Condition not met

Given the entry Cc1cc(N2CCc3c(c(C)nn3CC34CCC(NC(=O)CN5CCC5)(CC3)CC4)C2)c2cnn(C)c2n1 , would its reported IC50 be below 0.7 µM?
Condition met

Given the entry Cc1cc(N2CCc3c(c(C)nn3CC34CCC(NC(=O)[C@H]5COCCN5)(CC3)CC4)C2)c2cnn(C)c2n1 , would its reported IC50 be below 0.7 µM?
Condition not met

Given the entry Cc1cc(N2CCc3c(c(C)nn3CC34CCC(NCC(=O)N(C)C)(CC3)CC4)C2)c2cnn(C)c2n1 , would its reported IC50 be below 0.7 µM?
Condition not met

* * *

- protocol_details: Inhibition of CYP2D9 (unknown origin)
- Type: ADME, Homo sapiens
assay_readout: IC50

The reported IC50 of the compound Cc1cc(N2CCc3c(c(C)nn3CC34CCC(N)(CC3)CC4)C2)c2cnn(C)c2n1 was > 25 µM

* * *

- assay_system: Toll-like receptor 9 (Mus musculus)
- Sequence (Q9EQU3 whole entry): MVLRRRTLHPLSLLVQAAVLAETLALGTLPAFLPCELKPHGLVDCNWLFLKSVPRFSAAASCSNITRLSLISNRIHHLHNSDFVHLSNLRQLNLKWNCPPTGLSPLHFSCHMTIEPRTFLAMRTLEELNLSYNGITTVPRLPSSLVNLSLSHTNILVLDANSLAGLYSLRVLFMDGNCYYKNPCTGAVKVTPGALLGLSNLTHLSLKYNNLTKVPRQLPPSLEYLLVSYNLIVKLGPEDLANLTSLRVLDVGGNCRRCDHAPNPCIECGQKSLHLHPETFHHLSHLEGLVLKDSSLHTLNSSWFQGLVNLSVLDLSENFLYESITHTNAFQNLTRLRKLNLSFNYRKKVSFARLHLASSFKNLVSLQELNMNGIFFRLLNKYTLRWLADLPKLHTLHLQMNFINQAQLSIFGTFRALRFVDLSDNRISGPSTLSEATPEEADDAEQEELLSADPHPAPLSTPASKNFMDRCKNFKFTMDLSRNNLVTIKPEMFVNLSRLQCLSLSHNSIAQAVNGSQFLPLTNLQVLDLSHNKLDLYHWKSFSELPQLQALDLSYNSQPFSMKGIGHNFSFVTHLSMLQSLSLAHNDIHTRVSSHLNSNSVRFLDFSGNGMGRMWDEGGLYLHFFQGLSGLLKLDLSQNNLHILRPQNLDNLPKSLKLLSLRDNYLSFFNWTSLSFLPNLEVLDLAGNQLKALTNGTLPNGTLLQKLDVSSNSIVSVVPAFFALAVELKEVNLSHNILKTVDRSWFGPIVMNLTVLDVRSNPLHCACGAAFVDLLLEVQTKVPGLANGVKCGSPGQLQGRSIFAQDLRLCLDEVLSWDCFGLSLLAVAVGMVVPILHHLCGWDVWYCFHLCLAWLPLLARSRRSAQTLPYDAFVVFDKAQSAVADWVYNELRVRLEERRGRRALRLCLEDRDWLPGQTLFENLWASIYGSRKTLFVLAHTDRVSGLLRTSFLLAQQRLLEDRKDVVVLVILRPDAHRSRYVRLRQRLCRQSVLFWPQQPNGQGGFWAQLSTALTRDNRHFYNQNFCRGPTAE
- protocol_details: Antagonist activity at TLR9 in mouse Splenocyte assessed as reduction in IFN-alpha level measured after 20 hrs by Spectramax M5 method
- Assay type: cell-based
assay_readout: IC50

The reported IC50 of the compound Cc1cc(N2CCc3c(c(C)nn3CC34CCC(NC(=O)[C@@H]5COCCN5)(CC3)CC4)C2)c2cnn(C)c2n1 was > 1 µM

* * *

- assay_system: Toll-like receptor 7 (Mus musculus, UniProt P58681)
- Sequence (P58681 whole entry): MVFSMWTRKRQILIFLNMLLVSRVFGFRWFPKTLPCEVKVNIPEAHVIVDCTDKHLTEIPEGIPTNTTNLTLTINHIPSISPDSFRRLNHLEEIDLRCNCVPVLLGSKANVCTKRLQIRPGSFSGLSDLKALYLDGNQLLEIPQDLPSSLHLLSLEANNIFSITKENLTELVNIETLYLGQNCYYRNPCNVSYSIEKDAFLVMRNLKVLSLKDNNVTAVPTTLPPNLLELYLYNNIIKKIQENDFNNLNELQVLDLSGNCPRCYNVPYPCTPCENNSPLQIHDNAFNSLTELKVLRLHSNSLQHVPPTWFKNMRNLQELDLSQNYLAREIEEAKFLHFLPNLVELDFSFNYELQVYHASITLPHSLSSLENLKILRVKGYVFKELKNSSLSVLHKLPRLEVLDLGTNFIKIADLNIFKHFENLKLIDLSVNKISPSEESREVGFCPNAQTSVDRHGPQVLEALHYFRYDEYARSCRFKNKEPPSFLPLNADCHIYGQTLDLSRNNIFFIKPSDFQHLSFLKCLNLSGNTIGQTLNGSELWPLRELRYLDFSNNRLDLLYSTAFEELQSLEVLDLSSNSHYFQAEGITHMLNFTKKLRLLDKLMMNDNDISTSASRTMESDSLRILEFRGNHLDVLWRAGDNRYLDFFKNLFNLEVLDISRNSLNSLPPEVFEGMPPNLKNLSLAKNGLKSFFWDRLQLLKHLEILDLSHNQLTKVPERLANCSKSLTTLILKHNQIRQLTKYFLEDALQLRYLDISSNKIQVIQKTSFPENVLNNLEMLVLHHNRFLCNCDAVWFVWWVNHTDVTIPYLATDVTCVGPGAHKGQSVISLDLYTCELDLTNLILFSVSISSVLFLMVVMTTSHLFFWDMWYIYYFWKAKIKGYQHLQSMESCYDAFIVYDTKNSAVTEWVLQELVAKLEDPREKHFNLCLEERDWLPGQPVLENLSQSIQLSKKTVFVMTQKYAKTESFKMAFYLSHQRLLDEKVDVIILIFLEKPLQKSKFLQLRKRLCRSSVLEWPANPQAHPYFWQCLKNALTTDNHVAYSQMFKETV
- protocol_details: Antagonist activity at TLR7 in mouse Whole blood cell assessed as reduction in IFN-alpha level measured after 20 hrs by AlphaLISA method
- Assay type: tissue-based
assay_readout: IC50 (nM)
Provide the reading as a plain figure in nM.

The reported IC50 of the molecule Cc1cc(N2CCc3c(c(C)nn3CC34CCC(NC(=O)[C@@H]5COCCN5)(CC3)CC4)C2)c2cnn(C)c2n1 was 51

* * *

pIC50: −log10 of the molar value.
assay_readout: pIC50

Note to self: pIC50 of Cc1cc(N2CCc3c(c(C)nn3CC34CCC(N)(CC3)CC4)C2)c2cnn(C)c2n1 with Cytochrome P450 2D6 (Homo sapiens, UniProt P10635) was < 4.60

* * *

- protocol_details: Oral bioavailability in mouse at 1 mg/ml
- Type: ADME, organism-based
- assay_conditions: in vivo
I'd be grateful if you could share measured bioavailability for these entries.
Provide the reading as a plain figure in %.

The reported bioavailability of the compound CCNCC(=O)NC12CCC(Cn3nc(C)c4c3CCN(c3cc(C)nc5c3cnn5C)C4)(CC1)CC2 was 10

The reported bioavailability of the compound Cc1cc(N2CCc3c(c(C)nn3CC34CCC(NC(=O)[C@@H]5COCCN5)(CC3)CC4)C2)c2cnn(C)c2n1 was 32

The reported bioavailability of the compound CN[C@@H](C)C(=O)NC12CCC(Cn3nc(C)c4c3CCN(c3cc(C)nc5c3cnn5C)C4)(CC1)CC2 was 26
